Experiment: acute toxicity (LD50)
Details: in vivo, ip; i.p. mouse
readout-type: LD50

As a guide, the following entries are already answered.
O=C(c1cccs1)N1CCN(Cc2cccs2)CC1 [Compound 42] = 100 to 250 mg/kg
O=C(c1cc2ccccc2o1)N1CCN(Cc2ccc(F)cc2)CC1 [Compound 5] = 100 to 250 mg/kg

Record O=C(c1ccco1)N1CCN(Cc2ccc(Cl)c(Cl)c2)CC1 [Compound 22] . Reported LD50: 250 to 500 mg/kg

Record O=C(c1cc2ccccc2o1)N1CCN(Cc2ccccc2)CC1 [Compound 1, N-Benzyl-coumarillic acid piperazide] . Reported LD50: 320 mg/kg

Record O=C(C1Cc2ccccc2O1)N1CCN(Cc2ccccc2)CC1 (stereo not shown) [Compound 20] . Reported LD50: 100 to 150 mg/kg

Record O=C(c1cc2ccccc2o1)N1CCN(Cc2ccc(Cl)c(Cl)c2)CC1 [Compound 3] . Reported LD50: 1000 to 1500 mg/kg

Record O=C(c1cc2ccccc2o1)N1CCN(Cc2cccs2)CC1 [Compound 16, N-thenyl-coumarillic acid piperazide] . Reported LD50: 100 to 250 mg/kg
